Data provenance is patent US20240116985A1.

- target.desc: T1, full-length beta-Catenin (Uniprot ID P35222) (Homo sapiens (Human), UniProt P35222 1-781)
- T1 construct: The assay text says full-length beta-Catenin (Uniprot ID P35222); also called bCat; B-Catenin
- T1 sequence: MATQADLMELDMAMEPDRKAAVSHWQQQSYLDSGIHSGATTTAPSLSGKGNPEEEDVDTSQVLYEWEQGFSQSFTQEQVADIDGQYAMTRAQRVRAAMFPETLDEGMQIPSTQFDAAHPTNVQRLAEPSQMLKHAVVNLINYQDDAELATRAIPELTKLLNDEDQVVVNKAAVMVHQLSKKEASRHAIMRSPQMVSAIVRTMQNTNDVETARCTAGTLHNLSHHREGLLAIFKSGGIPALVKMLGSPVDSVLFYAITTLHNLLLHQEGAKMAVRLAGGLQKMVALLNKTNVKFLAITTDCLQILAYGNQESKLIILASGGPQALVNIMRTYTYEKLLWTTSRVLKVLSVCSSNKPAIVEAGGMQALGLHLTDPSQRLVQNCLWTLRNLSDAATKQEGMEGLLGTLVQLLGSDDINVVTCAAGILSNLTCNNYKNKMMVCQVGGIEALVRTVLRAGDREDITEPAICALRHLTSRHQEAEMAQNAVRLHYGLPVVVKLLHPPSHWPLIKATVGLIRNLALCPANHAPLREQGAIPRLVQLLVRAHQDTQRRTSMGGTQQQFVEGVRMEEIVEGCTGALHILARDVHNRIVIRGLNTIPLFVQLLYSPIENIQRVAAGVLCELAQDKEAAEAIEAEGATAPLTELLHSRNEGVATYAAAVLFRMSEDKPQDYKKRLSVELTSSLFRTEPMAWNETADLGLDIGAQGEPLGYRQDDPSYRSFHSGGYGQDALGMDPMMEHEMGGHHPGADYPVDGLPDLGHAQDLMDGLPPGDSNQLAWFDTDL
- assay.method.text: fluorescence polarization competition; full-length beta-catenin with 5FAM-labeled TCF4 (residues 10-53) probe as competitor
Starred links: 1 amine or outer side, 2 acyl side, 3 side chain; linkers in the order of their positions; H or OH if unused. Positions of bridges follow the written chain, without caps; N, C: chain ends. Non-standard residues stand in square brackets, D forms with d. Primed or numbered codes have the meaning given here. B5(16) = 2-amino-2-(pent-4-en-1-yl)hept-6-enoic acid = 2,2-bis(4-pentenyl)glycine (stitching residue), C=CCCCC(CCCC=C)(N[*:1])C(=O)[*:2]; B5(9) = 2-amino-2-(pent-4-en-1-yl)hept-6-enoic acid (2,2-bis(4-pentenyl)glycine), C=CCCCC(CCCC=C)(N[*:1])C(=O)[*:2]; 23FF = 2,3-difluoro-L-phenylalanine, O=C([C@H](Cc1cccc(F)c1F)N[*:1])[*:2]; Phe(3,5-F2) = N[C@@H](Cc1cc(F)cc(F)c1)C(=O)O; Phe(3-F) = N[C@@H](Cc1cccc(F)c1)C(=O)O; His(τ-Me) = Cn1cnc(C[C@H](N)C(=O)O)c1; Bta = N[C@@H](Cc1csc2ccccc12)C(=O)O; αAllylPro = C=CC[C@@]1(C(=O)O)CCCN1; S8 = C=CCCCCCC[C@](C)(N)C(=O)O
quantity.name: IC50 (µM)
Form entry: value (µM) — number only.

The examples below pair each entry with its known result.
binder	IC50 / µM
Ac-[αAllylPro]DA[B5(9)]DEAAFV[S8][23FF][Bta]Q-NH2 (staple 1-4, 4-11; also: later eluting HPLC isomer, E/Z not assigned, Stapled peptide; also called Ac-PL3-Asp-Ala-B5-Asp-Glu-Ala-Ala-Phe-Val-S8-23FF-BztA-Gln-NH2) [I-389]	5
Ac-[αAllylPro]DA[B5(9)]DEAAFV[S8][Phe(3,5-F2)][Bta]Q-NH2 (staple 1-4, 4-11, Stapled peptide; also called Ac-PL3-Asp-Ala-B5-Asp-Glu-Ala-Ala-Phe-Val-S8-35FF-BztA-Gln-NH2) [I-394]	5
XDAXDHAAFVXFXQ (not fully specified; N-terminal Ac; PL3 at 1, B5 at 4, S8 at 11 (stapled 1-4 and 4-11 by olefin metathesis); 3FF at 12; BztA at 13; C-terminal NH2, Stapled peptide; also called Ac-PL3-Asp-Ala-B5-Asp-His-Ala-Ala-Phe-Val-S8-3FF-BztA-Gln-NH2) [I-397]	2.23
XDAXDEAAFVXFXQ (not fully specified; N-terminal Ac; PL3 at 1, B5 at 4, S8 at 11 (stapled 1-4 and 4-11 by olefin metathesis); 23FF at 12; BztA at 13; C-terminal NH2, Stapled peptide; also called Ac-PL3-Asp-Ala-B5-Asp-Glu-Ala-Ala-Phe-Val-S8-23FF-BztA-Gln-NH2) [I-388]	5

Please examine the following record next.
Look up and report measured IC50 for this entry: Ac-[αAllylPro]DA[B5(16)]D[His(τ-Me)]AAFV[S8][Phe(3-F)][Bta]Q-NH2 (staple 1-4, 4-11; not fully specified, Stapled peptide; also called Ac-PL3-Asp-Ala-B5-Asp-1meH-Ala-Ala-Phe-Val-S8-3FF-BztA-Gln-NH2) [I-403] 2.13
